As shown below, each of these compounds has a reported percent inhibition of viability value.
Tested on: normal primary NK cells, pool 1 (3 donors), resting (IL-2 0 ng/mL);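 further: normalised to DMSO-only wells as negative and benzethonium chloride as positive control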
Test: percent inhibition of viability; higher = more inhibition
Conditions: 72 h; 0.25 nM
observation-type: percent inhibition of viability

INSERT INTO measurements (compound, assay_value) VALUES
  ('COC[C@H](NC(=O)c1cnc(C)s1)C(=O)N[C@@H](COC)C(=O)N[C@@H](Cc1ccccc1)C(=O)[C@@]1(C)CO1 [Oprozomib] (max concentration tested 2500 nM)', '-25.2%'),
  ('Cc1cc([C@@H](C)Nc2ccccc2C(=O)O)c2nc(N3CCOCC3)cc(=O)n2c1 [AZD-6482] (max concentration tested 2500 nM)', '1.92%'),
  ('COc1ccc2c(OCc3nnc4ccc(-c5ccccc5)nn34)ccnc2c1 [AMG-208] (max concentration tested 2500 nM)', '-15.8%'),
  ('O=C(NOCCO)c1ccc2cncn2c1Nc1ccc(I)cc1F [GDC-0623] (max concentration tested 2500 nM)', '-7.6%'),
  ('CC(C)Cn1cnc2c(N)nc3ccccc3c21 [Imiquimod] (max concentration tested 2500 nM)', '-4.66%');

---

As shown below, each of these compounds has a reported drug sensitivity score value.
Test system: normal primary NK cells, pool 2 (3 donors) (IL-2 2.5 ng/mL)
Experiment: drug sensitivity score (DSS) (DSS units); higher = more sensitive; extreme values may be limits of the assay
Settings: 72 h
observation-type: drug sensitivity score

INSERT INTO results (compound, observation_type, assay_value) VALUES
  ('O=C(Nc1cc(Cl)cc2c1[nH]c1cnccc12)c1cccnc1 [PS-1145] (max concentration tested 25000 nM)', 'drug sensitivity score', 0),
  ('O=P1(NCCCl)OCCCN1CCCl (stereo not given) [Ifosfamide] (max concentration tested 10000 nM)', 'drug sensitivity score', 0),
  ('CN(N=O)C(=O)N[C@@H](C=O)[C@@H](O)[C@H](O)[C@H](O)CO [Streptozocin] (max concentration tested 10000 nM)', 'drug sensitivity score', 0),
  ('Cn1c(Nc2ccc(C(F)(F)F)cc2)nc2cc(Oc3ccnc(-c4ncc(C(F)(F)F)[nH]4)c3)ccc21 [RAF265] (max concentration tested 1000 nM)', 'drug sensitivity score', 0.47),
  ('O=C1NC(=O)[C@@H](c2cn3c4c(cccc24)CCC3)[C@@H]1c1c[nH]c2ccccc12 [Tivantinib] (max concentration tested 1000 nM)', 'drug sensitivity score', 2.26),
  ('CC(C)(C)c1nc(-c2cccc(NS(=O)(=O)c3c(F)cccc3F)c2F)c(-c2ccnc(N)n2)s1 [Dabrafenib] (max concentration tested 2500 nM)', 'drug sensitivity score', 0.89),
  ('Oc1nc(-c2ccc(C(F)(F)F)cc2)nc2c1CSCC2 [XAV-939] (max concentration tested 10000 nM)', 'drug sensitivity score', 0),
  ('CCn1c(C(=O)N(C2CC2)C2CC2)cc2c3c(ncn3C)c(Nc3cc(C)n(C)n3)nc21 (max concentration tested 10000 nM)', 'drug sensitivity score', 3.12),
  ('O=C(O)c1ccc(-c2c[nH]c3ncc(-c4ccccc4)cc23)cc1C1CCCC1 (max concentration tested 10000 nM)', 'drug sensitivity score', 3.48),
  ('CS(=O)(=O)N1CCN(Cc2cc3nc(-c4cccc5[nH]ncc45)nc(N4CCOCC4)c3s2)CC1 [Pictilisib] (max concentration tested 10000 nM)', 'drug sensitivity score', 4.41),
  ('CN(Cc1cnc2nc(N)nc(N)c2n1)c1ccc(C(=O)N[C@@H](CCC(=O)O)C(=O)O)cc1 [Methotrexate] (max concentration tested 5000 nM)', 'drug sensitivity score', 0.89),
  ('COc1ccc(Cl)c(Nc2nc3ccccc3nc2NS(=O)(=O)c2cccc(NC(=O)C(C)(C)N)c2)c1 [Pilaralisib] (max concentration tested 2500 nM)', 'drug sensitivity score', 1.39),
  ('Cn1c(CCCC(=O)O)nc2cc(N(CCCl)CCCl)ccc21 [Bendamustine] (max concentration tested 10000 nM)', 'drug sensitivity score', 3.11),
  ('N#CCNC(=O)c1ccc(-c2ccnc(Nc3ccc(N4CCOCC4)cc3)n2)cc1 [Momelotinib] (max concentration tested 10000 nM)', 'drug sensitivity score', 11.5),
  ('CNC(=O)c1ccccc1Sc1ccc2c(/C=C/c3ccccn3)n[nH]c2c1 [Axitinib] (max concentration tested 10000 nM)', 'drug sensitivity score', 1.77),
  ('Nc1nc(OCc2cc(Br)cs2)c2[nH]cnc2n1 [Lomeguatrib] (max concentration tested 10000 nM)', 'drug sensitivity score', 0.34),
  ('O=C(NOCCO)c1ccc2cncn2c1Nc1ccc(I)cc1F [GDC-0623] (max concentration tested 2500 nM)', 'drug sensitivity score', 0.54),
  ('CCCc1cc(C)[nH]c(=O)c1CNC(=O)c1cc(-c2ccnc(N3CCN(C)CC3)c2)cc2c1cnn2C(C)C [GSK343] (max concentration tested 10000 nM)', 'drug sensitivity score', 0),
  ('CCCCCCCCc1ccc(CCC(N)(CO)CO)cc1 [Fingolimod] (max concentration tested 10000 nM)', 'drug sensitivity score', 8.2),
  ('CNC(=O)c1ccc2cc([C@@]3(O)CCn4cncc43)ccc2c1 [Orteronel] (max concentration tested 10000 nM)', 'drug sensitivity score', 0),
  ('COc1cccc2c1C(=O)c1c(O)c3c(c(O)c1C2=O)C[C@@](O)(/C(CO)=N/NC(=O)CCCCCN1C(=O)C=CC1=O)C[C@@H]3O[C@H]1C[C@H](N)[C@H](O)[C@H](C)O1 [Aldoxorubicin] (max concentration tested 1000 nM)', 'drug sensitivity score', 11.3),
  ('O=C(CCCCCCC(=O)Nc1ccccc1)NO [Vorinostat] (max concentration tested 10000 nM)', 'drug sensitivity score', 10.8),
  ('O=C(O)CCCc1ccc(N(CCCl)CCCl)cc1 [Chlorambucil] (max concentration tested 10000 nM)', 'drug sensitivity score', 4.06),
  ('CC(C)n1cnc2c(NCCc3ccc(O)cc3)nc(-c3csc4ccccc34)nc21 [StemRegenin 1] (max concentration tested 10000 nM)', 'drug sensitivity score', 2.7),
  ('Cc1csc(-c2nnc(Nc3ccc(Oc4ncccc4-c4ccnc(N)n4)cc3)c3ccccc23)c1 [AMG-900] (max concentration tested 1000 nM)', 'drug sensitivity score', 0);
